- System: IL-17A
- EXPERIMENT_NOTES: IL-17 release from differentiated primary human T-cells (IL-17A HTRF assay)
- Type: cell-based
- MEASUREMENT_PARAMETERS: primary human CD4+ T cells differentiated into Th17 cells, 45-hour incubation, IL-17A in supernatant; read-out: hIL17 IC50
Each item that follows carries a reported log10 of IC50.
Could you please treat all values as log10 of IC50 in µM?

{"SMILES_CODE": "C[C@H]1C(=O)C(C#N)=C[C@@]2(C)c3c(c(-c4ccccc4F)nn3-c3nc4cc(C(F)(F)F)ccc4s3)CC[C@H]12", "log10 of IC50": -1.96}
{"SMILES_CODE": "Cc1noc(-c2nn(-c3ccc(-c4ccccc4)cc3)c3c2CC[C@@H]2[C@@H](C)C(=O)C(C#N)=C[C@@]32C)n1", "log10 of IC50": -1.49}
{"SMILES_CODE": "CC(C)c1ccc(-c2nc3c(n2Cc2ccc(F)cc2)CC[C@@H]2[C@@H](C)C(=O)C(C#N)=C[C@@]32C)cc1", "log10 of IC50": -1.28}
{"SMILES_CODE": "C[C@H]1C(=O)C(C#N)=C[C@@]2(C)c3c(c(-c4ccncc4)nn3-c3ccc(-c4ccccc4)cc3)CC[C@H]12", "log10 of IC50": -1.59}
{"SMILES_CODE": "C[C@H]1C(=O)C(C#N)=C[C@@]2(C)c3nc(-c4ccnc(N5CCOCC5)c4)n(-c4cnn(C)c4)c3CC[C@H]12", "log10 of IC50": -0.33}

Qu. # return recorded log10 of IC50 for entry C[C@H]1C(=O)C(C#N)=C[C@@]2(C)c3c(c(-c4ccncn4)nn3-c3nc4ccccc4s3)CC[C@H]12
Ans. -1.11

Qu. Kindly indicate its recorded log10 of IC50. Item: C[C@H]1C(=O)C(C#N)=C[C@@]2(C)c3c(c(-c4ccc(F)cc4)nn3-c3ccc(-c4ccccc4)cc3)CC[C@H]12
Ans. -1.92

###

- Test system: IL-17A
- EXPERIMENT_NOTES: IL-17 release from differentiated primary human T-cells (IL-17A HTRF assay)
- Type: cell-based
- MEASUREMENT_PARAMETERS: primary human CD4+ T cells differentiated into Th17 cells, 45-hour incubation, IL-17A in supernatant; read-out: hIL17 IC50
Please respond with y when measured IC50 is strictly beneath 30 nM, and with n in all other cases.

Qu. Dear reviewer, please state whether C[C@H]1C(=O)C(C#N)=C[C@@]2(C)c3c(c(Nc4ccccc4)nn3-c3ccc(-c4ccccc4)cc3)CC[C@H]12 has IC50 strictly beneath 30 nM.
Ans. y

Qu. Take the molecule C[C@H]1C(=O)C(C#N)=C[C@@]2(C)c3nn(-c4ccc(-c5ccccc5)cc4)c(-c4cccnc4)c3CC[C@H]12 and say whether its IC50 is less than 30 nM.
Ans. n

Qu. IC50 under 30 nM? Item: C[C@H]1C(=O)C(C#N)=C[C@@]2(C)c3c(c(-c4ccncn4)nn3-c3ccc(C(F)(F)F)cn3)CC[C@H]12
Ans. n

###

- TESTED_SYSTEM: Human RAR-related Orphan Receptor Gamma (RORγ) (Homo sapiens, UniProt P51449)
- Sequence (P51449 269-508 limits assumed): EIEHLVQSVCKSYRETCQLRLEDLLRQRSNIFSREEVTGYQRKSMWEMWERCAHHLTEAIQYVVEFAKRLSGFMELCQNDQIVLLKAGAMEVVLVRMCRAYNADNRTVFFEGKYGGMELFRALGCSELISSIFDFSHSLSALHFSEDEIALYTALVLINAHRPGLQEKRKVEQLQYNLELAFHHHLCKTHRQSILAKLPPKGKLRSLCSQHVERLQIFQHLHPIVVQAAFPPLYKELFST
- EXPERIMENT_NOTES: RORγ assay (GAL4-RORγ hybrid luciferase reporter, Indigo Biosciences)
- MEASUREMENT_PARAMETERS: inverse-agonist activity, GAL4-RORγ reporter cells, 23 hours
# note: exactly 200 nM is not below, so it is criterion not met; use criterion met for IC50 strictly under it

Field: example entries. Status: answers known.
{"SMILES_CODE": "C[C@H]1C(=O)C(C#N)=C[C@@]2(C)c3nc(-c4cccc(-c5cncc(F)c5)c4)n(-c4cccc(F)c4)c3CC[C@H]12", "CATEGORY": "criterion met"}
{"SMILES_CODE": "Cc1ccccc1-n1nc2c(c1-c1ccccc1)CC[C@@H]1[C@@H](C)C(=O)C(C#N)=C[C@@]21C", "CATEGORY": "criterion met"}
{"SMILES_CODE": "Cc1noc(-c2nn(-c3ccc(-c4ccccc4)cc3)c3c2CC[C@@H]2[C@@H](C)C(=O)C(C#N)=C[C@@]32C)n1", "CATEGORY": "criterion met"}
{"SMILES_CODE": "C[C@H]1C(=O)C(C#N)=C[C@@]2(C)c3c(c(-c4ccccc4)nn3-c3ccncc3)CC[C@H]12", "CATEGORY": "criterion met"}
{"SMILES_CODE": "C[C@H]1C(=O)C(C#N)=C[C@@]2(C)c3c(c(-c4ccc(F)cc4)nn3-c3ccc(-c4cncc(F)c4)cc3)CC[C@H]12", "CATEGORY": "criterion met"}

Qu. Confirm or reject: IC50 of CC(C)c1cccc(-c2nc3c(n2-c2cccc(F)c2)CC[C@@H]2[C@@H](C)C(=O)C(C#N)=C[C@@]32C)c1 lies strictly below 200 nM
Ans. criterion not met

Qu. Strictly below 200 nM in IC50? CC(C)c1ccc(-c2nc3c(n2Cc2ccccn2)CC[C@@H]2[C@@H](C)C(=O)C(C#N)=C[C@@]32C)cc1
Ans. criterion met

Qu. Just wondering, is IC50 of C[C@H]1C(=O)C(C#N)=C[C@@]2(C)c3c(c(-c4ccccc4F)nn3-c3nc4ccccc4s3)CC[C@H]12 below 200 nM?
Ans. criterion not met

Qu. hey, is IC50 for CC(C)c1ccc(-c2nc3c(n2-c2cccc(F)c2)CC[C@@H]2[C@@H](C)C(=O)C(C#N)=C[C@@]32C)cc1 lower than 200 nM or not?
Ans. criterion not met

Qu. Check if IC50 falls below 200 nM for C[C@H]1C(=O)C(C#N)=C[C@@]2(C)c3c(c(-c4ccncn4)nn3-c3ccc(-c4cncnc4)cc3)CC[C@H]12 .
Ans. criterion met

###

Recorded log10(IC50) for the following molecules
- System: IL-17A
- EXPERIMENT_NOTES: IL-17 release from differentiated primary human T-cells (IL-17A HTRF assay)
- Format: cell-based
- MEASUREMENT_PARAMETERS: primary human CD4+ T cells differentiated into Th17 cells, 45-hour incubation, IL-17A in supernatant; read-out: hIL17 IC50
Friendly reminder: values = log10 of IC50, unit µM.

Check out these entries, answers already filled in.
{"MOLECULE": "C[C@H]1C(=O)C(C#N)=C[C@@]2(C)c3c(c(-c4ccccc4F)nn3-c3ccc(N4CCOCC4)cc3)CC[C@H]12 [T85]", "TESTED_SYSTEM": "IL-17A", "OBSERVATION_TYPE": "log10(IC50)", "NUMERIC_READOUT": -1.34}
{"MOLECULE": "Cc1nc(-c2ccc(-n3nc(-c4ccccc4F)c4c3[C@]3(C)C=C(C#N)C(=O)[C@H](C)[C@H]3CC4)cc2)no1 [T94]", "TESTED_SYSTEM": "IL-17A", "OBSERVATION_TYPE": "log10(IC50)", "NUMERIC_READOUT": -1.62}
{"MOLECULE": "Cc1ccccc1-c1nn(-c2ccc(-c3ccccc3)cc2)c2c1CC[C@@H]1[C@@H](C)C(=O)C(C#N)=C[C@@]21C [T72]", "TESTED_SYSTEM": "IL-17A", "OBSERVATION_TYPE": "log10(IC50)", "NUMERIC_READOUT": -2.00}
{"MOLECULE": "C[C@H]1C(=O)C(C#N)=C[C@@]2(C)c3c(c(-c4ccccc4)nn3-c3cccc(-c4ccccc4)c3)CC[C@H]12 [T35]", "TESTED_SYSTEM": "IL-17A", "OBSERVATION_TYPE": "log10(IC50)", "NUMERIC_READOUT": -1.24}
{"MOLECULE": "C[C@H]1C(=O)C(C#N)=C[C@@]2(C)c3c(c(-c4ccccc4)nn3-c3ccc(-c4cccc(CO)c4)cc3)CC[C@H]12 [T45]", "TESTED_SYSTEM": "IL-17A", "OBSERVATION_TYPE": "log10(IC50)", "NUMERIC_READOUT": -1.66}
{"MOLECULE": "C[C@H]1C(=O)C(C#N)=C[C@@]2(C)c3c(c(-c4ccccc4)nn3C3CCOCC3)CC[C@H]12 [T27]", "TESTED_SYSTEM": "IL-17A", "OBSERVATION_TYPE": "log10(IC50)", "NUMERIC_READOUT": -1.21}

Qu. Quote IL-17A log10(IC50) for entry C[C@H]1C(=O)C(C#N)=C[C@@]2(C)c3c(c(-c4ccccc4)nn3-c3ccc(-c4ccccc4F)cc3)CC[C@H]12 [T36] .
Ans. -1.66

Qu. Recall the reported log10(IC50) of C[C@H]1C(=O)C(C#N)=C[C@@]2(C)c3c(c(-c4cccnc4)nn3-c3ccc(-c4ccccc4)cc3)CC[C@H]12 [T68] on IL-17A and write it down.
Ans. -1.57

These entries and their values trace back to patent US11993574B2.
